- experimentalSystem: Genome polyprotein (Hepatitis C virus genotype 1a (isolate H77))
- Sequence (P27958 whole entry): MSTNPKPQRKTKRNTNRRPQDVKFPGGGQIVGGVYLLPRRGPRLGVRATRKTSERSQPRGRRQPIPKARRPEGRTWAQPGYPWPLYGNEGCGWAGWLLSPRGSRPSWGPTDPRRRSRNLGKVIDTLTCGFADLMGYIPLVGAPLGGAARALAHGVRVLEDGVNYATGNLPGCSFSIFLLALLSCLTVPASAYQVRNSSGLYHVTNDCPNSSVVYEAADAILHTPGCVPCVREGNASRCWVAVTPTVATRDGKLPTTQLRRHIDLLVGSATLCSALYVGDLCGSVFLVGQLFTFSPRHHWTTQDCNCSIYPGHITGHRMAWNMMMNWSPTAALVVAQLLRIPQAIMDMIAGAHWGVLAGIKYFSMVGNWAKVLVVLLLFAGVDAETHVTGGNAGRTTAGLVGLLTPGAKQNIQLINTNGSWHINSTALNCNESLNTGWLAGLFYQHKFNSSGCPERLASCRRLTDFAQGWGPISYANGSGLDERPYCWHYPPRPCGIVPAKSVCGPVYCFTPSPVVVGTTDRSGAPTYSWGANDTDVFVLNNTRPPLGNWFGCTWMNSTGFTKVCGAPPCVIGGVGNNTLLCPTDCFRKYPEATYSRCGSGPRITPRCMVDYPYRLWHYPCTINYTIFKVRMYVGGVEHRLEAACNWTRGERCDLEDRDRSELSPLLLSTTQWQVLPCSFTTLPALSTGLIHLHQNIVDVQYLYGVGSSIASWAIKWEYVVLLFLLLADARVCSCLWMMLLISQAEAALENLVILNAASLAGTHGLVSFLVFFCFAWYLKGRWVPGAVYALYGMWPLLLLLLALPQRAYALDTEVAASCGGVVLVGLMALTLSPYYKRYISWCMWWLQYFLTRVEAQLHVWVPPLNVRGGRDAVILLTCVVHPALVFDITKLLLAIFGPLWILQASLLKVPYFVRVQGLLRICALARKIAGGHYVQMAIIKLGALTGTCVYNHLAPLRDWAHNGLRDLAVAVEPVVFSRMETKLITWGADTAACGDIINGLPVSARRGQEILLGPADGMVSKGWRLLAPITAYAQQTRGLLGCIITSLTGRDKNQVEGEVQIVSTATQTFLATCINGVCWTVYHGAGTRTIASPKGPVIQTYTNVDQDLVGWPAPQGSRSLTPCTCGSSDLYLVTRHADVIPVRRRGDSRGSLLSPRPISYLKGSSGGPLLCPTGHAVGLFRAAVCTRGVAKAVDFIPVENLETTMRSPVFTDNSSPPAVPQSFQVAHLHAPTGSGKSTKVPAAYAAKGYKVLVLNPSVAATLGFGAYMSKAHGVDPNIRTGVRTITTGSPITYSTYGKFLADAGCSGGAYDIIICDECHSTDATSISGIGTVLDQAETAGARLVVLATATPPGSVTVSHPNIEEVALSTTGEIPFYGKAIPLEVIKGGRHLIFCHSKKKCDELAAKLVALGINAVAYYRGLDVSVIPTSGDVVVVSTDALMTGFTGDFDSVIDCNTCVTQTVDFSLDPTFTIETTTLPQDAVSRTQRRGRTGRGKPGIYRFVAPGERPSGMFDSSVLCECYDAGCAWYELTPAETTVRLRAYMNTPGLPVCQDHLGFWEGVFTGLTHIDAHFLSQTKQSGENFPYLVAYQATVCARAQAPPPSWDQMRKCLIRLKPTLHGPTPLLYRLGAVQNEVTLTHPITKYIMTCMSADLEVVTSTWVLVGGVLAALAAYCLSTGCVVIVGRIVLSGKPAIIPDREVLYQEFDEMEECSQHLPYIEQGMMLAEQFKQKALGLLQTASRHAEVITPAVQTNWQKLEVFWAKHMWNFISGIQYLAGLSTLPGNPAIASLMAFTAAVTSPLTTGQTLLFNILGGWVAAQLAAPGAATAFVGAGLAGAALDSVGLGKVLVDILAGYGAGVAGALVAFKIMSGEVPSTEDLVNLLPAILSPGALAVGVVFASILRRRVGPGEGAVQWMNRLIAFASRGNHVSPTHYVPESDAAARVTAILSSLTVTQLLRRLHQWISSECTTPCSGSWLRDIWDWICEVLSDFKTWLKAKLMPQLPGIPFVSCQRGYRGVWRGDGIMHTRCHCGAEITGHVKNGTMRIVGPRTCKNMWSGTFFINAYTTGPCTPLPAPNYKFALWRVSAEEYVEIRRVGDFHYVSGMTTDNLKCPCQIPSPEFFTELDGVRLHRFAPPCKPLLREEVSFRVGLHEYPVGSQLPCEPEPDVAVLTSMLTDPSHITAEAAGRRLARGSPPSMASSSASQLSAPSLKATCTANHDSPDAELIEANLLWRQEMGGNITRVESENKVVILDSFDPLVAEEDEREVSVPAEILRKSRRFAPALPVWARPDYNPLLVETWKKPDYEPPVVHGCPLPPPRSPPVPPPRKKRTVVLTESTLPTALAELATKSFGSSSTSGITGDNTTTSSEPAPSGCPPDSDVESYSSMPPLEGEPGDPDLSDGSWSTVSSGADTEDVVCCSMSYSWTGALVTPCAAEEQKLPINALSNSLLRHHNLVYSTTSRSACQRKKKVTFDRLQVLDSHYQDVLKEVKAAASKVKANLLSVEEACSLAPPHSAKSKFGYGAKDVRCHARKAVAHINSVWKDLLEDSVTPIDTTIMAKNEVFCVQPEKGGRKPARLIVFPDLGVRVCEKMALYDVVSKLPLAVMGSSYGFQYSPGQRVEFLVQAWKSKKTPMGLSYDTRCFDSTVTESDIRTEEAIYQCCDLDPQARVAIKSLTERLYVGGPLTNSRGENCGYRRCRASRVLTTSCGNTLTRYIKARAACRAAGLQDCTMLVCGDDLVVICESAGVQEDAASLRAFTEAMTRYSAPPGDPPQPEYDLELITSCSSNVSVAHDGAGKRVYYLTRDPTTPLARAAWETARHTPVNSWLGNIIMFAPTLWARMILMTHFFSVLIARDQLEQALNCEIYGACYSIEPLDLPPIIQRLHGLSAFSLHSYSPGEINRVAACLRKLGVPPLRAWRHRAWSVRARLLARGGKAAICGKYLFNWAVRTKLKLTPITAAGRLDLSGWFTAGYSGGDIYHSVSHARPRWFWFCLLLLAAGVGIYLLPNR
- assaySummary: HCV Replicon Assay Luciferase
- setupConditions: 37 °C
reportedMetric: EC50

{"molecule": "C/C=C/C[C@@H](C)C1ON2C(=O)[C@H](C(C)C)N(C)C(=O)[C@H](CC(C)C)N(C)C(=O)[C@@H](CC(C)C)N(C)C(=O)[C@@H](C)NC(=O)[C@H](C)NC(=O)[C@H](CC(C)C)N(C)C(=O)[C@H](C(C)C)NC(=O)[C@H](C(C)(C)COC(=O)NS(C)(=O)=O)N(C)C(=O)[C@@H](C)N(C)C(=O)[C@H](CC)NC(=O)[C@H]12 (stereo partly specified)", "result": "> 1000 nM"}
